Sourced from patent US20090170901A1

TGT: NR1-3/NR2A NMDA receptor (Homo sapiens, UniProt Q05586+Q12879)
Construct: expressed in transfected cells
Sequence (Q12879 23-1464, other chains not shown): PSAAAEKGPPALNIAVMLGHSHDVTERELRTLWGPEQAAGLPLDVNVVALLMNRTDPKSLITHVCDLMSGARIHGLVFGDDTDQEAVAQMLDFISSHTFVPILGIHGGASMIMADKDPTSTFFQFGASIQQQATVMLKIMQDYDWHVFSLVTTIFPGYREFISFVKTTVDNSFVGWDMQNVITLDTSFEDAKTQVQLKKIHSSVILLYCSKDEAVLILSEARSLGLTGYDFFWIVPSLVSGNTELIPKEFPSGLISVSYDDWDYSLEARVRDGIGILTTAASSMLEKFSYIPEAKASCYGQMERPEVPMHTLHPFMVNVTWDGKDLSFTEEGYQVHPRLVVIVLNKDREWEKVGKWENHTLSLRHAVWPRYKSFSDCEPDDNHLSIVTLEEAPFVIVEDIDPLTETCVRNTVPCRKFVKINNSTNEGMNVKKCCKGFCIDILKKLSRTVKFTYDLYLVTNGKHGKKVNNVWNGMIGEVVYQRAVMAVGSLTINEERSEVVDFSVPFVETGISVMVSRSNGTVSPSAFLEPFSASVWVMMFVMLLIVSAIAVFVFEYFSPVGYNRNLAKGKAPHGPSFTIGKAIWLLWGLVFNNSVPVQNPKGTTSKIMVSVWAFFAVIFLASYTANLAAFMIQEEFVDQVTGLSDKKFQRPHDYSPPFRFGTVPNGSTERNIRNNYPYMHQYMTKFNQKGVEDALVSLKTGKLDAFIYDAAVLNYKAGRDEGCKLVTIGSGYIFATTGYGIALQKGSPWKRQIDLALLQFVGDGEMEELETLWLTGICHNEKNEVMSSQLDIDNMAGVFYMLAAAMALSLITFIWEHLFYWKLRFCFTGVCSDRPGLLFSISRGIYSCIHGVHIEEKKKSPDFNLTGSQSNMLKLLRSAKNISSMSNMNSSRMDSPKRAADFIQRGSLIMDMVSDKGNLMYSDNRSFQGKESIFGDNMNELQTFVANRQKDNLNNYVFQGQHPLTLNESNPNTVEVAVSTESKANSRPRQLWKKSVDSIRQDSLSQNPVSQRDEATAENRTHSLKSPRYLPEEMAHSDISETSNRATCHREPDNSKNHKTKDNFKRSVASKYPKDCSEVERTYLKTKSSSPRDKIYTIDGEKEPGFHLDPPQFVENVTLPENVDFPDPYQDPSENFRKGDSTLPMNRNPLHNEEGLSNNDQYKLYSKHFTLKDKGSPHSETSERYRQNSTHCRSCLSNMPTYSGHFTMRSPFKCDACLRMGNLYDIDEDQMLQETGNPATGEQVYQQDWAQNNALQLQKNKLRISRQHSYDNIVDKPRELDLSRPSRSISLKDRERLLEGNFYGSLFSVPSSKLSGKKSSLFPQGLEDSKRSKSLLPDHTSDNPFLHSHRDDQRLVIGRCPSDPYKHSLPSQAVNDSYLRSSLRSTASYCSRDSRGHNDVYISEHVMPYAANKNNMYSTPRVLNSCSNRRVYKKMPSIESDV
TEST DETAILS: Functional NMDA antagonism, fluorimetric intracellular calcium measurement on HEK293 cells expressing NR1-3/NR2A
Assay type: cell-based
PARTICULARS: Table 1; 15 uM compound, NMDA evoked calcium rise, NR1-3/NR2A transfected HEK293 cells
ENDPOINT LABEL: inhibition at 15 µM (%)

>>> numeric_value("O=C(NC(=O)N1CCC(Cc2ccccc2)CC1)c1ccc(O)cc1")
2.6
>>> numeric_value("Cc1ccc(CCC2CCN(C(=O)NC(=O)c3ccc(O)cc3)CC2)cc1")
11.4
>>> numeric_value("O=C(NC(=O)N1CCC(Cc2ccccc2)CC1)c1ccc2[nH]c(=O)oc2c1")
-6.7
>>> numeric_value("O=C(NC(=O)N1CCC(CSc2ccccc2)CC1)c1ccc(O)cc1")
-2.9
>>> numeric_value("COc1ccc(CC2CCN(C(=O)NC(=O)c3ccc(O)cc3)CC2)cc1")
-5.7
>>> numeric_value("COc1cccc(CC2CCN(C(=O)NC(=O)c3ccc(O)cc3)CC2)c1")
-0.9

----------
TGT: NR1a/NR2B NMDA receptor (Rattus norvegicus, UniProt P35439+Q00960)
Construct: expressed in transfected cells
Sequence (Q00960 27-1482, other chains not shown): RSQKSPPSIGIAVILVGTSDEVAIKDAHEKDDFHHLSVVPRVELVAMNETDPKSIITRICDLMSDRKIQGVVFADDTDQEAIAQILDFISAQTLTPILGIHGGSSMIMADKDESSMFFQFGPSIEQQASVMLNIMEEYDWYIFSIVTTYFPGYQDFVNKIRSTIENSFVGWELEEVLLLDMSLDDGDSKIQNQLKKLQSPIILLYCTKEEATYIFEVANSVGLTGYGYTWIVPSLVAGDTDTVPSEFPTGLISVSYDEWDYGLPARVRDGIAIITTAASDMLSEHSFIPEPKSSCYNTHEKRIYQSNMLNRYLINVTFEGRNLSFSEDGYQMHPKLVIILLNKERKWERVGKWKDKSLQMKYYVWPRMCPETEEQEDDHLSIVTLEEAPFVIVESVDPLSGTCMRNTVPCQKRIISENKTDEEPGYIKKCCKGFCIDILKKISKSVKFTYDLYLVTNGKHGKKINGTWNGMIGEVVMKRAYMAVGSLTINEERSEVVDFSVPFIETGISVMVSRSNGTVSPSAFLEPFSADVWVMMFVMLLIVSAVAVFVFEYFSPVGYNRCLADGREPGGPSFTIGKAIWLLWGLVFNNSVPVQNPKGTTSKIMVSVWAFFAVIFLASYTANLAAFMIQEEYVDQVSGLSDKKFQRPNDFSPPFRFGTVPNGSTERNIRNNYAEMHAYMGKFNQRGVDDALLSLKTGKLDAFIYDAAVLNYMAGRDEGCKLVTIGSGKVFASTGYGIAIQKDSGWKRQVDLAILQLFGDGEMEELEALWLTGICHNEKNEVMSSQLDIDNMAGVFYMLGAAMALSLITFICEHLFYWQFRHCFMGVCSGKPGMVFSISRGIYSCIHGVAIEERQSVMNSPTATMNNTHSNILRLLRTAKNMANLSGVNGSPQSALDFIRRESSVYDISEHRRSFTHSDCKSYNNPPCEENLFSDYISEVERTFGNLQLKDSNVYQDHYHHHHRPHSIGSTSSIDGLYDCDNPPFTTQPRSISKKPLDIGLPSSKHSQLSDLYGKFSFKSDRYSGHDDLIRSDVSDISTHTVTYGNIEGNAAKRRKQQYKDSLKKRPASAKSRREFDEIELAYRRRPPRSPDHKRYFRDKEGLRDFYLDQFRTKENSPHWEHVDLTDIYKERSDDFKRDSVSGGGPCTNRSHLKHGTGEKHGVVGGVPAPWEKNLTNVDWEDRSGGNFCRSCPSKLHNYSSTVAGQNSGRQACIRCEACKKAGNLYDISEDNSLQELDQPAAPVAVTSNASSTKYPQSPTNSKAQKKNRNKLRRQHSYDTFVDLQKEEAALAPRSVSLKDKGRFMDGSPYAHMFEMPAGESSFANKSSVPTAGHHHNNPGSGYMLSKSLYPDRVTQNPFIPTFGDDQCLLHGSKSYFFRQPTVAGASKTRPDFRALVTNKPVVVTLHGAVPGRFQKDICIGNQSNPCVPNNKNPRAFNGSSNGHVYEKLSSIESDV
TEST DETAILS: Functional NMDA antagonism, fluorimetric intracellular calcium measurement on HEK293 cells expressing NR1a/NR2B
Assay type: cell-based
ENDPOINT LABEL: IC50 (nM)

>>> numeric_value("C[C@@H](CN1CCC(Cc2ccccc2)CC1)[C@@H](O)c1ccc(O)cc1 [Ro 25.6981, reference compound]")
57

----------
TGT: NR1a/NR2B NMDA receptor (Rattus norvegicus, UniProt P35439+Q00960)
Construct: expressed in transfected cells
TEST DETAILS: Functional NMDA antagonism, fluorimetric intracellular calcium measurement on HEK293 cells expressing NR1a/NR2B
Assay type: cell-based
PARTICULARS: Table 1; inhibition of calcium rise induced by 200 μM NMDA, NR1a/NR2B transfected HEK293 cells; read-out: NR1a/NR2B IC50
pIC50: −log10 of the molar value.
The reader will find reported pIC50 values listed item by item below.
ENDPOINT LABEL: pIC50

>>> numeric_value("COc1cccc(CC2CCN(C(=O)NC(=O)c3ccc(O)cc3)CC2)c1")
7.23
>>> numeric_value("O=C(NC(=O)N1CCC(CSc2ccccc2)CC1)c1ccc(O)cc1")
7.23
>>> numeric_value("COc1ccc(CC2CCN(C(=O)NC(=O)c3ccc(O)cc3)CC2)cc1")
8.12
>>> numeric_value("O=C(NC(=O)N1CCC(Cc2ccccc2)CC1)c1ccc(O)cc1")
7.55
>>> numeric_value("O=C(NC(=O)N1CCC(Cc2ccccc2)CC1)c1ccc2[nH]c(=O)oc2c1")
7.22
>>> numeric_value("Cc1ccc(CCC2CCN(C(=O)NC(=O)c3ccc(O)cc3)CC2)cc1")
7.84
